Origin of values: patent US20210386788A1

- Method: Pharmacokinetics of Bazedoxifene in CD-1 mice (plasma, LC-MS-MS)
- Type: in vivo
- Stated Conditions: CD-1, mouse, plasma, oral, 100 mg/kg, 100 mg/kg single dose; 2 hours post dose; free and bound combined; individual animals; read-out: Plasma Bazedoxifene Concentrations
Measurement Name: concentration at 2 h (nM)
Numbers only here, please. The scale is nM.

Ask: Form field: reported concentration at 2 h of Cc1c(-c2ccc(O)cc2)n(Cc2ccc(OCCN3CCCCCC3)cc2)c2ccc(O)cc12
Result: 2820

====

- Method: Pharmacokinetics of Bazedoxifene in CD-1 mice (plasma, LC-MS-MS)
- Format: in vivo
- Stated Conditions: CD-1, mouse, plasma, oral, 10 mg/kg, 10 mg/kg single dose; 1 hours post dose; free and bound combined; individual animals; read-out: Plasma Bazedoxifene Concentrations
Measurement Name: concentration at 1 h (nM)
Number in nM, nothing else.

Ask: Quick check: concentration at 1 h of Cc1c(-c2ccc(O)cc2)n(Cc2ccc(OCCN3CCCCCC3)cc2)c2ccc(O)cc12 ?
Result: 97
